Measured IC50 values are reported for all entries that follow.
- Assayed Target: KRAS (G12D)::SOS1 (Homo sapiens (Human), UniProt P01116, G12D)
- Sequence (P01116 other isoform, or with tags, fused parts or gaps G12D): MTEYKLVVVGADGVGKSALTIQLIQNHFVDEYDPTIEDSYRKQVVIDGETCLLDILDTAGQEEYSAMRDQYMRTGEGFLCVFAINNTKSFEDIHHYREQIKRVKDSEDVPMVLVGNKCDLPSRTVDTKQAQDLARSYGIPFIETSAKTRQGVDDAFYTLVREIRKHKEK
- Method Summary: KRAS::SOS1 AlphaScreen binding assay, KRAS G12D
- Experimental: This assay can be used to examine the potency with which compounds according to the invention binding to (mutated) KRAS inhibit the protein-protein interaction between SOS1 and (mutated) KRAS e.g., KRAS WT, KRAS G12C, KRAS G12D, KRAS G12V, KRAS G13D. […] Plates are kept at room temperature in a darkened incubator. After an additional 60 minutes incubation time the signal is measured in a PerkinElmer Envision HTS Multilabel Reader using the AlphaScreen specs from PerkinElmer. […]
Property: IC50

# Record Smiles, Endpoint Value
records = [
    ("COCCNC(=O)c1ccn(-c2cc(O[C@@H](C)[C@@H]3CCCN3C)nc(-c3onc4c3CCC[C@@]43CCCc4sc(N)c(C#N)c43)n2)n1", "1 nM"),
    ("C[C@H](Oc1cc(-n2cc(Cn3ccnc3)nn2)nc(-c2noc3c2CCC[C@@]32CCCc3sc(N)c(C#N)c32)n1)[C@@H]1CCCN1C", "2 nM"),
    ("C[C@H](Oc1cc(N2CCN(C)C2=O)nc(-c2noc3c2CCC[C@@]32CCCc3sc(N)c(C#N)c32)n1)[C@@H]1CCCN1C", "1 nM"),
    ("C[C@H](Oc1cc(N2CCNC3(CCCC3)C2)nc(-c2noc3c2CCC[C@@]32CCCc3sc(N)c(C#N)c32)n1)[C@@H]1CCCN1C", "1 nM"),
    ("C[C@H](Oc1cc(N2CCNC2=O)nc(-c2noc3c2CCC[C@@]32CCCc3sc(N)c(C#N)c32)n1)[C@@H]1CCCN1C", "1 nM"),
    ("C[C@H](Oc1cc(N2CCNCC2)nc(-c2noc3c2CCC[C@@]32CCCc3sc(N)c(C#N)c32)n1)[C@@H]1CCCN1C", "1 nM"),
]

----------
- System: SAS cells
- Method Summary: SAS CTG proliferation assay (120 h) (HNSCC, wt amplified)
- Format: cell-based
pIC50: −log10 of the molar value.

# Record Smiles, pIC50
measured = [
    ("[2H]C([2H])([2H])N1C[C@H](F)C[C@H]1[C@H](C)Oc1cc(N2CCN(C([2H])([2H])[2H])C3(CC3)C2)nc(-c2noc3c2CCC[C@@]32CCCc3sc(N)c(C#N)c32)n1", 5.96),
    ("C[C@H](Oc1cc(-n2ccc(-c3cn([C@@H]4CCOC4)nn3)n2)nc(-c2noc3c2CCC[C@@]32CCCc3sc(N)c(C#N)c32)n1)[C@@H]1CCCN1C", 7.77),
    ("C[C@H](Oc1cc(-c2cnsc2)nc(-c2noc3c2CCC[C@@]32CCCc3sc(N)c(C#N)c32)n1)[C@@H]1CCCN1C", 7.24),
]

----------
- Assayed Target: KRAS (G12C)::SOS1 (Homo sapiens (Human), UniProt P01116, C118S/C51S/C80L/G12C)
- Sequence (P01116 other isoform, or with tags, fused parts or gaps G12C/C51S/C80L/C118S): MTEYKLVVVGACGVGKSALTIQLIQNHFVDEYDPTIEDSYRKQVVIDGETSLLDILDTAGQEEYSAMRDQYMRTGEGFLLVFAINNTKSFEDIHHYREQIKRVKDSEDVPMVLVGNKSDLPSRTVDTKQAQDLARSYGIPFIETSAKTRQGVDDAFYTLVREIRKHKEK
- Method Summary: KRAS::SOS1 AlphaScreen binding assay, KRAS G12C
IC50 overview
Property: IC50

# Molecule, Assayed Target, Endpoint Value
rows = [
    ("C[C@H](Oc1cc(C2COCCO2)nc(-c2noc3c2CCC[C@@]32CCCc3sc(N)c(C#N)c32)n1)[C@@H]1CCCN1C (stereo partly drawn) [II-95]", "KRAS (G12C)::SOS1 (Homo sapiens (Human), UniProt P01116, C118S/C51S/C80L/G12C)", "2 nM"),
    ("C[C@H](Oc1nc(-c2noc3c2CCC[C@@]32CCCc3sc(N)c(C#N)c32)nc(N2C[C@H](C)NC3(CC3)C2)c1F)[C@@H]1C[C@@H](F)CN1C [II-157]", "KRAS (G12C)::SOS1 (Homo sapiens (Human), UniProt P01116, C118S/C51S/C80L/G12C)", "2 nM"),
    ("C[C@H](Oc1cc(-n2ccc(C(=O)N[C@H]3CCOC3)n2)nc(-c2noc3c2CCC[C@@]32CCCc3sc(N)c(C#N)c32)n1)[C@@H]1CCCN1C [II-193]", "KRAS (G12C)::SOS1 (Homo sapiens (Human), UniProt P01116, C118S/C51S/C80L/G12C)", "1 nM"),
    ("C[C@H](Oc1cc(-c2ccc(N)nc2)nc(-c2onc3c2CCC[C@@]32CCCc3sc(N)c(C#N)c32)n1)[C@@H]1CCCN1C [I-25]", "KRAS (G12C)::SOS1 (Homo sapiens (Human), UniProt P01116, C118S/C51S/C80L/G12C)", "2 nM"),
    ("C[C@H](Oc1cc(N2CCOC2=O)nc(-c2noc3c2CCC[C@@]32CCCc3sc(N)c(C#N)c32)n1)[C@@H]1CCCN1C [II-143]", "KRAS (G12C)::SOS1 (Homo sapiens (Human), UniProt P01116, C118S/C51S/C80L/G12C)", "2 nM"),
    ("COCc1cn(-c2cc(O[C@@H](C)[C@@H]3CCCN3C)nc(-c3noc4c3CCC[C@@]43CCCc4sc(N)c(C#N)c43)n2)nn1 [II-121]", "KRAS (G12C)::SOS1 (Homo sapiens (Human), UniProt P01116, C118S/C51S/C80L/G12C)", "2 nM"),
]
